target: T1, 重组hSIRPα (human, UniProt P78324 31-370, limits assumed); test: competition ELISA on coated hSIRPα (1 μg/ml) against biotinylated CD47-Fc (6 μg/ml)
T1 construct: also called SIRPα蛋白; SIRPα抗原
T1 sequence (P78324 31-370 limits assumed): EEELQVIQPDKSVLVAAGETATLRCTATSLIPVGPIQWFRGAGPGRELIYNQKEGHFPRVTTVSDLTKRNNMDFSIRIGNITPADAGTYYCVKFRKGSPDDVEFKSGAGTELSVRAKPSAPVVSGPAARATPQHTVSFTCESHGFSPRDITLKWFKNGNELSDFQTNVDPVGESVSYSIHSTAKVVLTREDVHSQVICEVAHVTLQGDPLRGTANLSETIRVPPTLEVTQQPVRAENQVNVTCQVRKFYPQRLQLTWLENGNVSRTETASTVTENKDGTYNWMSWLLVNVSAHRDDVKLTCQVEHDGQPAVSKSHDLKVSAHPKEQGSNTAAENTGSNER
reported metric: IC50 (µg/mL)
Give your result in µg/mL as a bare value.

Query block: Fill in IC50 for record 52B3 (antibody, V domains shown, also called 抗SIRPα抗体52B3) VH: EVQLQQSGAELVRSGASVKMSCKASDYTFTSYNLHWVKQTPGQGLEWIGYIYPGNGNTKYSQKFKGKATLTADTSSSTAYMQISSLTSEDSAVYFCTRNYDYYFYTMGYWGQGTTVTVSS VL: DIVLTQSPKFMSTSVGDRVNITCKASQDVCTAVAWYQQKPGQSPKLLIYSASYRYTGVPDRFTGSGSRTDFTFTISSVQAEDLAVYYCQQHYSTPLTFGAGTKLELK
Result block: 0.121

Each recorded value in this set is attributed to patent CN114685656A.
